- Target: α-glucosidase (Saccharomyces cerevisiae, UniProt P53341)
- Sequence (P53341 whole entry): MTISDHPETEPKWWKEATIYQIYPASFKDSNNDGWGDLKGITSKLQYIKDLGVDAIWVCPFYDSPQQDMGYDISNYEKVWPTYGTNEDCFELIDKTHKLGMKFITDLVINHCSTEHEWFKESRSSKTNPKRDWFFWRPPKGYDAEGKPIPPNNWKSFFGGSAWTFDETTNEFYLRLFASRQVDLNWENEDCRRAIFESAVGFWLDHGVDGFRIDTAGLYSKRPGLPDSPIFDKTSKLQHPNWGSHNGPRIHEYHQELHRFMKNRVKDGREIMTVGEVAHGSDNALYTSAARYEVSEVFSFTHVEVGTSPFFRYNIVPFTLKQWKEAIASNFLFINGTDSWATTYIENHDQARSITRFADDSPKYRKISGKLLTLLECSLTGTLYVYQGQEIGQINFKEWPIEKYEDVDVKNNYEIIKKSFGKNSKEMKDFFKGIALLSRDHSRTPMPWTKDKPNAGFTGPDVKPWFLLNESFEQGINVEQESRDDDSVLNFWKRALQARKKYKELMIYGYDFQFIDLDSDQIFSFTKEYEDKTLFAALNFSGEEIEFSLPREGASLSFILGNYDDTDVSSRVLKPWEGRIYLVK
- Assay Method Text: biochemical
- Assay Context: α-glucosidase IC50, same result in molar units
Ends that are not written are not given here.
Readout Label: IC50 (µM)
# number only, unit µM dropped from output

System α-glucosidase (Saccharomyces cerevisiae, UniProt P53341). Read-out IC50. Item PAPPPPPP [HdPPP] . Report value.
2210

----------
- Target: α-glucosidase (Saccharomyces cerevisiae, UniProt P53341)
- Assay Method Text: biochemical
- Assay Context: α-glucosidase IC50, 25 °C, 5 min, absorbance 405 nm; mean ± standard deviation, n = 3
Ends that are not written are not given here.
Readout Label: pIC50
pIC50 (log units): -log10 of the concentration in mol/L.

Quickly give me recorded pIC50 for PAPPPPPP [HdPPP]
2.66
